Test system: Escherichia coli
Test Summary: Antimicrobial activity against Escherichia coli T-625 harboring expressing qnrB2 and beta-lactamase KPC-2 and SHV-12 gene by Etest
Assay type: functional
Consider the following compounds and their measured MIC readings.
Use µg/mL as the unit, but write only the number.

Worked examples follow.
1) CC(C)(O/N=C(\C(=O)N[C@@H]1C(=O)N2C(C(=O)[O-])=C(C[n+]3ccccc3)CS[C@H]12)c1csc(N)n1)C(=O)O: 32
2) C[C@@H](O)[C@H]1C(=O)N2C(C(=O)O)=C(SCCNC=N)C[C@H]12 [IMIPENEM ANHYDROUS]: 8
3) C[C@H]1COc2c(N3CCN(C)CC3)c(F)cc3c(=O)c(C(=O)O)cn1c23.C[C@H]1COc2c(N3CCN(C)CC3)c(F)cc3c(=O)c(C(=O)O)cn1c23.O: 0.094

Let us move to another entry and its MIC.
Record `C[C@@H](O)[C@H]1C(=O)N2C(C(=O)O)=C(S[C@@H]3CN[C@H](C(=O)N(C)C)C3)[C@H](C)[C@H]12` . Reported MIC: 3

Where do the numbers come from? From ChEMBL document CHEMBL1275468.
